Quantity Name: melting point (°C)

Worked cases, melting point given:
Cc1nnc(-c2ccccc2)c2nc(OCc3ncnn3C)c(C3CCC3)n12 = 160
Cn1ncnc1COc1nc2c(-c3c(F)cccc3F)nncn2c1-c1ccccc1 = 190
Cn1cnc(COc2nc3c(-c4ccccc4F)nncn3c2-c2ccccc2)n1 = 186
Cc1nnc(-c2ccccc2)c2nc(OCc3ncnn3C)c(C3CCCC3)n12 = 137

[A] Cn1ncnc1COc1nc2c(-c3cc(F)ccc3F)nncn2c1-c1ccccc1
[B] Cn1ncnc1COc1nc2c(-c3ccccc3F)nncn2c1C1CCC1
// task: argmin of melting point over [ A , B ] Record your answer as the label of the chosen record. B

----------
Quantity Name: melting point (°C)

Cn1ncnc1COc1nc2c(-c3ccccc3)nncn2c1-c1ccccc1 (hydrate or solvate) = 179

[P] Cn1ncnc1COc1nc2c(-c3ccccc3F)nncn2c1-c1ccccc1
[Q] Cn1ncnc1COc1nc2c(-c3ccc(F)cc3)nncn2c1-c1ccccc1
// task: argmin of melting point over [ P , Q ] Record your answer as the label of the chosen record. Q
(Q: 130 °C, P: 195 °C)
